Data origin, for the record: patent US10562848B2

Collected IC50 values appear next to each entry.
assayed_system: human CD40-CD40L (Homo sapiens, UniProt P29965)
Construct: purchased Enzo Life Sciences (San Diego, Calif.)
Sequence (P29965 116-261 limits assumed): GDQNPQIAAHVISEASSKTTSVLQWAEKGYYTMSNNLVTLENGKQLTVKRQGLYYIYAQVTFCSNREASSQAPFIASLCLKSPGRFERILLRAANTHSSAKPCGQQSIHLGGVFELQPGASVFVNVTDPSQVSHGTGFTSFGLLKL
run_description: Cell-free ELISA-type CD40-CD40L binding inhibition assay
assay_context: IC50 CD40, Table 2
# value in µM; strip the unit string

# structure_smiles_string, measurement_units, IC50
rows = [
    ("O=C(Nc1ccc(-c2ccc(C(=O)Nc3cccc4cccc(S(=O)(=O)O)c34)cc2)cc1)c1ccc([N+](=O)[O-])cc1", "µM", 0.3),
    ("O=C(Nc1ccc(-c2ccc(C(=O)Nc3cccc4cccc(S(=O)(=O)O)c34)cc2)cc1)c1ccc2[nH]nnc2c1", "µM", 1),
    ("O=C(Nc1ccc(-c2ccc(C(=O)Nc3ccc(S(=O)(=O)O)c4ccccc34)cc2)cc1)c1ccc([N+](=O)[O-])cc1", "µM", 2.3),
]

human CD40-CD40L (Homo sapiens, UniProt P29965) IC50 of Nc1ccc(C(=O)Nc2ccc(-c3ccc(C(=O)Nc4cccc5cccc(S(=O)(=O)O)c45)cc3)cc2)cc1 is 301
